Every entry's value here was drawn from patent US9765075B2.

- Target entity: SIRT1 (Homo sapiens, UniProt Q96EB6)
- Sequence (Q96EB6 1-747): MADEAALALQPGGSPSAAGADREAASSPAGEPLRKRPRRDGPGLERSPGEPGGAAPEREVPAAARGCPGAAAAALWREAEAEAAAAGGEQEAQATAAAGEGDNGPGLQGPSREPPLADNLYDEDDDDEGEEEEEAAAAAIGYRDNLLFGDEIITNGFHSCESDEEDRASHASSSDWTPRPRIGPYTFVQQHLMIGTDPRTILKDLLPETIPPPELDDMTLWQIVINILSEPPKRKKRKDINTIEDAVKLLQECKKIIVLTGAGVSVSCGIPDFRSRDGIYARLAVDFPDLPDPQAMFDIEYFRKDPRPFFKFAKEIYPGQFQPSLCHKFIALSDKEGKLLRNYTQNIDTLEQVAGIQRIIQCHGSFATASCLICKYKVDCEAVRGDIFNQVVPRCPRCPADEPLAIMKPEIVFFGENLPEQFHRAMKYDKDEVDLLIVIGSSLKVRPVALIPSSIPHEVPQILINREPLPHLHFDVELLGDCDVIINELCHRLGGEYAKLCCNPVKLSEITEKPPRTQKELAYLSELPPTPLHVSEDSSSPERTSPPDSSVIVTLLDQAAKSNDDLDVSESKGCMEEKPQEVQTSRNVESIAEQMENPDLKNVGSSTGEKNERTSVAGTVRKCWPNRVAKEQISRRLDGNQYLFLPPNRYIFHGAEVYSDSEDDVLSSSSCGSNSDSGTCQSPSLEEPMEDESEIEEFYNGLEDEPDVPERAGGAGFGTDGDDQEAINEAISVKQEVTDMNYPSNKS
- Protocol notes: Trp mass spectrometry assay (SIRT1 activation)
- Assay type: biochemical
- Recorded conditions: concentration of test compound that results in 150% activation of SIRT1; Trp peptide substrate
- Experimental: Mass spectrometry based assays were used to identify modulators of SIRT1 activity. […] The peptide was labeled with the fluorophore 5TMR (excitation 540 nm/emission 580 nm) at the C-terminus. The sequence of the peptide substrate was based on p53 with several modifications. […] The Trp mass spectrometry assay was conducted as follows. […] Test compound was added at varying concentrations to this reaction mixture and the resulting reactions were monitored. […]

- Molecule: "Cc1n[nH]cc1-c1ccc2c(n1)N(C(=O)Nc1ccccn1)[C@H]1CCN2C1"
  Target entity: "SIRT1 (Homo sapiens, UniProt Q96EB6)"
  Tryp AVG EC1.5 (μM): "B (EC1.5 1-25 μM)"
- Molecule: "Cc1nc(NC(=O)N2c3nc(N4CCCC(C(F)(F)F)C4)ccc3N3CCC[C@H]2C3)sc1C (stereo partly shown)"
  Target entity: "SIRT1 (Homo sapiens, UniProt Q96EB6)"
  Tryp AVG EC1.5 (μM): "B (EC1.5 1-25 μM)"
- Molecule: "O=C(Nc1ccccn1)N1c2nc(-c3cncc(F)c3)ccc2N2CC[C@H]1C2"
  Target entity: "SIRT1 (Homo sapiens, UniProt Q96EB6)"
  Tryp AVG EC1.5 (μM): "B (EC1.5 1-25 μM)"

###

- Target entity: SIRT1 (Homo sapiens, UniProt Q96EB6)
- Protocol notes: Trp mass spectrometry assay (SIRT1 activation)
- Type: biochemical
- Recorded conditions: percent maximum fold activation of SIRT1; Trp peptide substrate; read-out: Tryp % Fold Act

- Molecule: "O=C(Nc1ccncn1)N1c2nc(-c3cccc(N4CCOCC4)c3)ccc2N2CCC[C@H]1C2"
  Emax: "≥ 150%"
- Molecule: "Cc1cc(C)nc(NC(=O)N2c3nc(N4CCCC(C(F)(F)F)C4)ccc3N3CCC[C@@H]2C3)c1 (some centres unmarked)"
  Emax: "< 150%"
- Molecule: "O=C(Nc1ccccn1)N1c2nc(-c3ccnc(N4CCC(F)(F)C4)c3)ccc2N2CC[C@H]1C2"
  Emax: "≥ 150%"
- Molecule: "O=C(Nc1cncc(F)c1)N1c2nc(-c3cccc(Cl)c3)ccc2N2CCC1CC2"
  Emax: "≥ 150%"
- Molecule: "Cn1cc(-c2ccc3c(n2)N(C(=O)Nc2cccnc2)[C@H]2CCN3C2)cn1"
  Emax: "≥ 150%"
- Molecule: "Cc1nc(NC(=O)N2c3nc(-c4cncc(F)c4)ccc3N3CCC[C@H]2C3)sc1C"
  Emax: "≥ 150%"
- Molecule: "Cc1nc(NC(=O)N2c3nc(-c4cncc(Cl)c4)ccc3N3CCC[C@H]2C3)sc1C"
  Emax: "≥ 150%"
- Molecule: "O=C(Nc1cnccn1)N1c2nc(-c3cc(F)c(F)c(F)c3)ccc2N2CC[C@H]1C2"
  Emax: "< 150%"
- Molecule: "O=C(Nc1cncc(F)c1)N1c2nc(-c3cncc(Cl)c3)ccc2N2CCC1CC2"
  Emax: "≥ 150%"
- Molecule: "O=C(Nc1cccc(-c2cnco2)c1)N1c2nc(-c3cncc(F)c3)ccc2N2CCC1CC2"
  Emax: "≥ 150%"
- Molecule: "COc1cc(NC(=O)N2c3nc(-c4cncc(Cl)c4)ccc3N3CCC2CC3)nc(OC)n1"
  Emax: "≥ 150%"
- Molecule: "COc1ncc(-c2ccc3c(n2)N(C(=O)Nc2cnccn2)[C@H]2CCN3C2)c(OC)n1"
  Emax: "≥ 150%"
- Molecule: "Cc1nc(NC(=O)N2c3nc(-c4cccc(Cl)c4)ccc3N3CCC2CC3)sc1C"
  Emax: "≥ 150%"
- Molecule: "CN(C)c1ccc(-c2ccc3c(n2)N(C(=O)Nc2ccccn2)[C@H]2CCN3C2)cn1"
  Emax: "≥ 150%"
- Molecule: "N#Cc1cccc(-c2ccc3c(n2)N(C(=O)Nc2cccnn2)[C@@H]2CCCN3C2)c1"
  Emax: "≥ 150%"
- Molecule: "O=C(NCCc1ccccn1)N1c2nc(-c3cccc(C(F)(F)F)c3)ccc2N2CC[C@H]1C2"
  Emax: "≥ 150%"
- Molecule: "O=C(Nc1ccccn1)N1c2nc(-c3cccc(Cl)c3)ccc2N2CCC[C@H]1C2"
  Emax: "≥ 150%"
- Molecule: "Cc1nc(NC(=O)N2c3nc(-c4cccc(N(C)C)c4)ccc3N3CCC[C@@H]2C3)sc1C"
  Emax: "≥ 150%"
- Molecule: "O=C(Nc1ccncn1)N1c2nc(-c3cccc(Cl)c3)ccc2N2CCC1CC2"
  Emax: "≥ 150%"
- Molecule: "O=C(Nc1cnccn1)N1c2nc(-c3cccc(N4CCOCC4)c3)ccc2N2CCC[C@H]1C2"
  Emax: "≥ 150%"
- Molecule: "O=C(Nc1cncc(F)c1)N1c2nc(N3CCCC(C(F)(F)F)C3)ccc2N2CC[C@H]1C2 (some centres unmarked)"
  Emax: "≥ 150%"
- Molecule: "COc1cc(-c2cccc(Cl)c2)nc2c1N1CC[C@@H](C1)N2C(=O)Nc1cnccn1"
  Emax: "≥ 150%"
- Molecule: "CC(C)(C)OC(=O)NCc1cn(-c2cccc(NC(=O)N3c4nc(-c5cccc(C(F)(F)F)c5)ccc4N4CC[C@H]3C4)c2)nn1"
  Emax: "≥ 150%"
- Molecule: "O=C(Nc1ccncn1)N1c2nc(-c3cccc(Cl)c3)ccc2N2CC[C@@H]1C2"
  Emax: "≥ 150%"
- Molecule: "N#Cc1cncc(-c2ccc3c(n2)N(C(=O)Nc2ccncn2)[C@H]2CCCN3C2)c1"
  Emax: "≥ 150%"
- Molecule: "O=C(Nc1ccccn1)N1c2nc(-c3cncc(Cl)c3)ccc2N2CCC1CC2"
  Emax: "≥ 150%"
- Molecule: "CN(C)c1cccc(-c2ccc3c(n2)N(C(=O)Nc2cccc(-c4cnco4)c2)[C@@H]2CCCN3C2)c1"
  Emax: "≥ 150%"
- Molecule: "CC(=O)O[C@@H]1CN2C[C@H]1N(C(=O)Nc1ccccn1)c1nc(-c3cccc(C(F)(F)F)c3)ccc12"
  Emax: "≥ 150%"
- Molecule: "Cc1nn(C)c(C)c1-c1ccc2c(n1)N(C(=O)Nc1cccnc1)[C@H]1CCN2C1"
  Emax: "≥ 150%"
- Molecule: "Cn1nccc1-c1ccc2c(n1)N(C(=O)Nc1cnccn1)[C@H]1CCN2C1"
  Emax: "≥ 150%"
- Molecule: "O=C(Nc1ccccn1)N1c2nc(-c3cccnc3)ccc2N2CCC[C@H]1C2"
  Emax: "≥ 150%"
- Molecule: "O=C(Nc1cccnc1)N1c2nc(-c3cnn(-c4ccccc4)c3)ccc2N2CC[C@H]1C2"
  Emax: "≥ 150%"

###

- Target entity: SIRT1 (Homo sapiens)
- Sequence (Q96EB6 1-747): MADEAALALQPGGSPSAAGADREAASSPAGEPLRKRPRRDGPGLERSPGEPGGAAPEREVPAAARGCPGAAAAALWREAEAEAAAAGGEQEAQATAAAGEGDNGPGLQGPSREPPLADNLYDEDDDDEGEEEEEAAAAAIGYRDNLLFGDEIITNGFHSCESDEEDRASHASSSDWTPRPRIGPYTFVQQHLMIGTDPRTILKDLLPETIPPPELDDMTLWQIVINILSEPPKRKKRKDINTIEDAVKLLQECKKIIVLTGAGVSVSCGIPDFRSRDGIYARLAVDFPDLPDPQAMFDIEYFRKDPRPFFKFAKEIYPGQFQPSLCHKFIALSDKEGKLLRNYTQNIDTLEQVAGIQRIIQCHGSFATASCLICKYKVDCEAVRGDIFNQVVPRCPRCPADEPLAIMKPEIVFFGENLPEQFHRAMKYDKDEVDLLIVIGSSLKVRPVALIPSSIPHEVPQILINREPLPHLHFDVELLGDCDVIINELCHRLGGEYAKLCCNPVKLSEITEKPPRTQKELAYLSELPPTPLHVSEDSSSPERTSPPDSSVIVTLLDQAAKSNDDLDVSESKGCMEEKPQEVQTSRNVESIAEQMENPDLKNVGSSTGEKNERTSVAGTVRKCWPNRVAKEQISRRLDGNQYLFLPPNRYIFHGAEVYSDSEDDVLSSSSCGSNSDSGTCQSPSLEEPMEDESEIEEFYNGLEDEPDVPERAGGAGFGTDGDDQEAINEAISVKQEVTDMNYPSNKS
- Protocol notes: Trp mass spectrometry assay (SIRT1 activation)
- Format: biochemical
- Recorded conditions: Trp mass spectrometry assay; EC1.5 = concentration giving 150% activation of SIRT1
- Procedure: Mass spectrometry based assays were used to identify modulators of SIRT1 activity. […] The peptide was labeled with the fluorophore 5TMR (excitation 540 nm/emission 580 nm) at the C-terminus. The sequence of the peptide substrate was based on p53 with several modifications. […] The Trp mass spectrometry assay was conducted as follows. […] Test compound was added at varying concentrations to this reaction mixture and the resulting reactions were monitored. […]

- Compound string: "FC(F)(F)c1cccc(-c2ccc3c(n2)N(C(=S)Nc2cccc(-c4cnco4)c2)[C@H]2CCN3C2)c1"
  Target entity: "SIRT1 (Homo sapiens)"
  Tryp AVG EC1.5 (μM): "A (EC1.5<1 μM)"
- Compound string: "O=C(Nc1cccc(-c2ccoc2)n1)N1c2nc(-c3cccc(C(F)(F)F)c3)ccc2N2CC[C@H]1C2"
  Target entity: "SIRT1 (Homo sapiens)"
  Tryp AVG EC1.5 (μM): "A (EC1.5<1 μM)"
- Compound string: "O=C(Nc1ccncn1)N1c2nc(-c3cccc(C(F)(F)F)c3)ccc2N2C[C@@H](O)[C@H]1C2"
  Target entity: "SIRT1 (Homo sapiens)"
  Tryp AVG EC1.5 (μM): "B (EC1.5 1-25 μM)"
- Compound string: "O=C(Nc1ccc(Br)c(-c2cnco2)c1)N1c2nc(-c3cccc(C(F)(F)F)c3)ccc2N2CC[C@H]1C2"
  Target entity: "SIRT1 (Homo sapiens)"
  Tryp AVG EC1.5 (μM): "A (EC1.5<1 μM)"
- Compound string: "O=C(Nc1ccncc1)N1c2nc(-c3cccc(C(F)(F)F)c3)ccc2N2CC[C@H]1C2"
  Target entity: "SIRT1 (Homo sapiens)"
  Tryp AVG EC1.5 (μM): "A (EC1.5<1 μM)"
